soluble fraction (log2) for assorted sequences
- Assay text: soluble fraction after stress (log2 fold change); higher = more stays soluble; pooled small domains, quantitative proteomics
- Study conditions: stress: 50 degC
A bare number is all that is needed in reply.

# Entry sequence, soluble fraction (log2)
records = [
    ("HMYLSNPTYRGDSLVDALTQIGVDASFASRRDLARKNGIENYTGSAKQNLELLQLLREGRLR", 0.374),
    ("HMTEISGIEKFLASGAINGIGPAMAKKIVAEFGEKTLEIIAKSPNELLKVPGIGKKTAEKISTSYLEQ", -0.0669),
    ("HMGGLIDQSIQEIIDKYSVPGKKIQKAQRLKIVAEMHTKGIFKMRGGVQQAAQALGVTRYTVYNDLEVMN", -2.89),
    ("HMRRQRNPEIFDQLVNKFHFTFTQTQQLKQLIKRWHMLFPGKSLKSAIQGYKSAKEILTYINDSLDVVE", 0.124),
]

Task item: Supply soluble fraction (log2) value. Item: "HMPTLNIVDGHIAASDGVRILSIHNVTGRRYATSSKLPAGIYIVVLMPAKAETPLTVKVIVEA"
Reply: -1.6

Task item: Supply soluble fraction (log2) value. Item: "HMYGSLGEYELAAVQWIYGKGKITTRELSSLIGKGLTLSSKTLRGLAAKGILEWHGNSKNDPSQFYSLP"
Reply: -2.39

Task item: Supply soluble fraction (log2) value. Item: "HMIVSVPNVRGMGESKAAAALQNRGLLVSIDYESSTSASQGEVIRQSISPGTEVTKGSSITIIIAVSPN"
Reply: -0.0262

Task item: Supply soluble fraction (log2) value. Item: "HMERRDEINSVVSRYVSAITEGKYDLAEVDETGKLRVQTEGREVLPEALSRGTLEQFYFAFRMAVGSI"
Reply: -0.118

----------
soluble fraction (log2) for assorted sequences
- Assay text: soluble fraction after stress (log2 fold change); higher = more stays soluble; pooled small domains, quantitative proteomics
- Study conditions: stress: 50 degC
A bare number is all that is needed in reply.

Below, 3 sequences whose answers are already recorded.
# Entry sequence, soluble fraction (log2)
data = [
    ("HMGKSKAAQSSLVRSIMHQISDKNRGPMPLSEIIDRASIQSIDEAIVRSLVSRMKEQGEIYEPSLGTYEF", -0.209),
    ("HMAAVPQPQRSETIVYIGGRKFYVHTVQAGETLYSIARLYGVSEQTLVANNPTMADVVKADQNVRIPVPA", -0.272),
    ("HMAEAIVMSTAAPVKSSPDPQSKDIFVLHEGTKVAVGDSLGDWREIRIADGNKGWVLVSAIEMI", 0.0979),
]

# next sequence below
Task item: Supply soluble fraction (log2) value. Item: "HMYPATGTVVTAGGHLNMRSEPDRSGAILARIPNGTALTLTGKNGDWYAATYAGRSGYVSAQYISLS"
Reply: -0.0468

----------
- Assay text: soluble fraction after stress (log2 fold change); higher = more stays soluble; pooled small domains, quantitative proteomics
- Study conditions: stress: 50 degC
soluble fraction (log2) vs -0.3: at or above is Yes, below is No.

Task item: API: above_or_equal(metric=soluble fraction (log2), cutoff=-0.3) for item "HMAQVSDTGELEGVVDGVLAANAKSVADFQAGKENAFQYLIGQVMKETKGKANPEVVATLLRTKLS"
Reply: No

Task item: API: above_or_equal(metric=soluble fraction (log2), cutoff=-0.3) for item "HMPLITDIKIQVKNTEKVSLFVDGKYSFSLTISQLAEHKILKTNQEISAKQVAEFKKLSNLTNLYIRIVG"
Reply: Yes

Task item: API: above_or_equal(metric=soluble fraction (log2), cutoff=-0.3) for item "HMPMDYFELFNIPRNANRETIKKILDQEYEKYRARVVSPVLEIRHEAELMLVEISKAKQVLLG"
Reply: Yes

Task item: API: above_or_equal(metric=soluble fraction (log2), cutoff=-0.3) for item "HMPNNNDIVLDRVSFGYHEKEVLHGIDMTIREGTVNALVGPSGSGKSTIAKLIAGLWDVDGGSISF"
Reply: Yes

Task item: API: above_or_equal(metric=soluble fraction (log2), cutoff=-0.3) for item "HMNVRRSRTHEKVTTYQGYDIFINKEPNQRGMFTSAPMRGDNEYSNLRGEGKSKQDAVNMTKEKIDEIAA"
Reply: Yes

Task item: API: above_or_equal(metric=soluble fraction (log2), cutoff=-0.3) for item "HMSDKLTLPVQINGVFRYTIEINPSMQKDEIIDLVKNEERTAKYKQDKEIKNVIVVPGKIVNIII"
Reply: Yes
